- Tested on: MS2 coat protein
- assayOverview: apparent KD of MS2 coat protein; designed switch direction (-1 OFF switch, 1 ON switch): 1; higher = weaker reporter binding
- experimentalSetup: input ligand: FMN 200 uM
Task for the reader: assign each of the following sequences its reported apparent KD of MS2 coat protein.
Note: unit nM is implicit; provide only the numeric part.

GET /value?item= UUACAUGAGGAUCACCCAUGUCGCUGGUAAACUUCGAACCCGCAGGAUAUGUAUGCCACUUUACGACAGAAGGGCGGGUGCCUG [Eternabot solution 47] (Eterna round: R96, puzzle: Same State NG 3) &field=apparent KD of MS2 coat protein returns 37.9

Summary for this sequence, UAUUAAUCUGUAGGAUAUGUAGGAUAUGGACGAGGAUCACCCGAGCAGCAUCAGCGCACCAGAGGACAGAAGGACGGCCGGGUG [pwkr ssNG2 2F5 2FMN.24] (Eterna round: R96, puzzle: Same State NG 2) : apparent KD of MS2 coat protein is 1670

AGCUAUUAAUCAGGAUAUGGUCACAUGAGGAUCACCCAUGUAUAGAUGAUUGAAUGUGGUCUAAACUAGAAGGGAUUGCUAACA [SameState NG2 #57] (Eterna round: R96, puzzle: Same State NG 2) yielded apparent KD of MS2 coat protein of 971

Measured apparent KD of MS2 coat protein, UUGAAGAAUUAAGGAUAUUGAGUACAUAUGUUUAACAUGAGGAUCACCCAUGUGGGUUGCGGUAUCGAGAAGGUAAAUUACUAG [JL SSNG2 1.45] (Eterna round: R96, puzzle: Same State NG 2) : 91.2

For this sequence ( UAAUUAAGUCAAGGAUAUCACGUCGAAUAGACGUGAGAAGGUGACCAAUACAUGAGGAUCACCCAUGUAAUACAUGAAUAAUUA [SSNG1/12-B1] (Eterna round: R96, puzzle: Same State NG 1) ), measured apparent KD of MS2 coat protein is 27.7

----------
- Tested on: MS2 coat protein
- assayOverview: apparent KD of MS2 coat protein; higher = weaker reporter binding
- experimentalSetup: Eterna round: R107; input ligand: theophylline 20 uM
Consider the following sequences; for each one, report its apparent KD of MS2 coat protein.
Could you give me the number in µM? Just the number is fine.

Lookup result for CGUCGAAACUGAAGGAGCGAGAUGACAACAUUGGGUCUAACAUGAGGAUCACCCAUGUAAUCUCAGGUAGGUCGCGGUGACAACA [Exclusion Arginine B GF 17] ; measured apparent KD of MS2 coat protein: 0.0485

Reported apparent KD of MS2 coat protein of GCAUCCUAGUCGGCCGCCACUGCACGAUCAGUGGCAGAUCGUCAACAUGAGGAUCACCCAUGUAGCAGGACCGGGACUAGGAUGC [(Trp1)-(TM)''-(TM)'-(Ms2)-(Trp2)_Design3] : 0.0219

Value of measured apparent KD of MS2 coat protein for the entry ACAUGAGGAUCACCCAUGUGUGUAAGUCCUCGAGGACCGGUACGGCCGCCACUCGAACGAGUGAAGCCUGAUACUAAGUAUCAGG [SS Trp A s5] : 0.0207

The value of apparent KD of MS2 coat protein measured for the sequence CCCAAAUAGAUAUUUGGGAUUUUACUCGAAGGAGCGUCAUAGUAGGCAGGUAGGUCGCGAGACAUGAGGAUCACCCAUGUAGAGA [ss-argA-N] turned out to be 0.0459

Reported apparent KD of MS2 coat protein ( CGGGUUGGACCAGGAAAUGGUCUGACGCGCCGAGGACCGGUACGGCCGCCACUCGCGGGUACAUGAGGAUCACCCAUGUCGGUGG [#1 Same State - Tryptophan A Attempt #12 (HarryS)] ) = 0.0693

----------
- Tested on: K4 kissing-loop RNA reporter
- assayOverview: apparent KD of K4 kissing-loop reporter; higher = weaker reporter binding
- experimentalSetup: Eterna round: R107; input ligand: arginine 13.2 mM
Provide the recorded apparent KD of K4 kissing-loop reporter for the entries that follow.
Enter your answer as a number in nM; do not include the unit.

The recorded apparent KD of K4 kissing-loop reporter for ACGAUUUACAGAAGGAGCGUGUAUUUAACUACAAUUAUCUUAGCGAGUGAUGUUCGUUUUACACAGGUAGGUCGCUGUAUAUCGA [JR_ExcArginiB_Sub011] is 303

apparent KD of K4 kissing-loop reporter reading for UGUAUGUGAUGUGAUACCAGUGAAGAGCCAGUGAUGUUGGUAGAACUGGUAUAUAAAUAACACCCUUGGCAGCACAGUCACGUAC [whbob_Ex_Theo_B_sa100] : 241

Looking up UUGUUUGGUUGAGAGGUUGGGCGAGAUGAUACCAGUAGAGAAGAGUACCCUUGGCAGCAUAAGAAAGAUAUAGUGAUGUUGUAUA [SSTheophA.P] , I found its apparent KD of K4 kissing-loop reporter recorded as 362

Consider AGUGAUGUGGGAAGGAGCGGUAUAAGAAUUCAGUGAUGUUGAAGUGUUGCAGAAAUAAAAGGCCAGGUAGGUCGCCUAGAUGUUA [KL-XARG B29] . Its measured apparent KD of K4 kissing-loop reporter is 384

So, ACACUAUCGUCAUAGACGGUAGUGAAAGCUCAGGAUAUGAGUGAUGUUAGAAGGGAGUAAAUCUUAGGUAUCGAAUAGAUACCAA [FmnA 7 #K4BetweenAptamer #OpenEnded] ? Its apparent KD of K4 kissing-loop reporter was 364

Form: sequence = UGAUACCAGACGGCCGCCACUUCCGUAAGUCAAAGACUUACCAAGGGAAUCGUCCAGUGAUGUUGGAGGACCGGGUCUGGUAUCU [FiskerMod 6 - Jieux - Exclusion - Tryptophan B] ; apparent KD of K4 kissing-loop reporter = 744

----------
- Tested on: K4 kissing-loop RNA reporter;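 also: bound reporter read as fluorescence of individual clusters on recovered sequencing chips by microscopy, with normalized cluster intensities fitted with a binding model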
- assayOverview: apparent KD of K4 kissing-loop reporter; higher = weaker reporter binding
- experimentalSetup: Eterna round: R107; input ligand: FMN 200 uM
assayMetric: apparent KD of K4 kissing-loop reporter (nM)
Give a bare numeral; the unit nM is implied.

Input UUUAACGAGUGAUGUUCGAAGAGUAAUGGUGAGGAUAUCGAUUUUUCGAGAAGGCGCCUCGAAGUGAUACGAAAGUAUCGCUUCG [FMN A 6] . Output apparent KD of K4 kissing-loop reporter: 239

Entry AGUGGUGUAUCUUUUAAGAGUGAUGUUUUUCGAGGACCGGUACGGCCGCCACUCGAGUGAUGAGUGCGUCGUUGUGGUGAUUAGU [#14 K4 Tryptophan A Exclusion] , apparent KD of K4 kissing-loop reporter reported as 816

For AUUAAUUUCAGAGGAUAUCGUAUUUAUAUUAUAUCUUUCCAUAUUUGCAGUGAUGUUGCAUUAAUUCGAGAAGGCUGAUUUAUAA [JR_Nu_ExcFMNB_Sub024] the sequence record lists apparent KD of K4 kissing-loop reporter as 86.1

GUAUCGCUAGGAGGAUAUUUCGUUUUUCAUAGCAAUGGCUAUGCGGAGUGAUGUUCCGAUUUACCGGAAGAAGGCCUAGUGAUAC [FMN B 26] has a reported apparent KD of K4 kissing-loop reporter of 109

Form: sequence = ACUUAGAAUGAAGGAUAUUGGUUACGAGGGCUAACCAAAACGGAUCACUUGUCCAGUGAUGUUGUCCAAGAAGGUCACGUUAAAC [theeternabot_exclusion_KL_FMN_B_44] ; apparent KD of K4 kissing-loop reporter = 776

AUGUAUGAAUUAGGAUAUCGUUAGCCUUGCAUAUAUAUGAUAAAUGGAUAUGUCGUAGUGAUGUUACGAGAAGGAGUGUGGAGUA [KL-XFMN-B5] has a reported apparent KD of K4 kissing-loop reporter of 44.6

Lab note: measured apparent KD of K4 kissing-loop reporter of AAUACAGUGUCGGCCGCCACUGUAACAUGCCAUGAGACAUGAGACAUGAGUGAUGUUCAUGUAGACAGGACCGGGACUCAUGUAU [KL-SSTryp-B3 #analogue] was 450

Note to self: apparent KD of K4 kissing-loop reporter recorded for AAUCAAUACAGAAGGAGCGUGACAAUUACUAUUGAUUCAGGAGCUAGUGAUGUUAGCAUUUCACAGGUAGGUCGCUGUACAUUUA [JR_SSArginiB_Sub013] was 165

So, CCAGGUUGCCGCAACGACCUGGAUUUUAGGGAGGAUAUCCAGAGCAGGAGAAGGCCCAGUGAUGUUGGGCCUGUGGAGCCCAUAU [Ararensoza] ? Its apparent KD of K4 kissing-loop reporter was 274

The sequence listed as UGGACCAAGGAGUGAUGUUCCAAAUGUGAUACCAGCCACGAAAGUGGCCCUUGGCAGCACUGCCAGGACGAAAACGUCCGGUCCU [#SwitchBubble 12 #StaticStem #K4Early] has a reported apparent KD of K4 kissing-loop reporter of 358

Form: sequence = CACGAUGAAUUCUCUAGGAGUGAUGUUUUUCGAGGACCGGUACGGCCGCCACUCGGACGACGAGCGUGGUAGCGGCGUGAAGACU [zamullin] ; apparent KD of K4 kissing-loop reporter = 365

UGGACCAGGAGUGAUGUUCCAAAAUGUGAUACCAGCCACGAAAGUGGCCCUUGGCAGCACUGCCAGGACGAAAACGUCCGGUCCU [#SwitchBubble 11 #StaticStem #K4Early] yielded apparent KD of K4 kissing-loop reporter of 285
